- experimentalTarget: T1, human Trop-2 (on the surface of human cell lines) (human, UniProt P09758 27-323)
- T1 construct: Endogenous Trop-2 on NCI-H322, Capan-1, PC-3, HUVEC, OVCAR-3, HCC38 and HCC1806 cells; also called TACSTD2
- T1 sequence: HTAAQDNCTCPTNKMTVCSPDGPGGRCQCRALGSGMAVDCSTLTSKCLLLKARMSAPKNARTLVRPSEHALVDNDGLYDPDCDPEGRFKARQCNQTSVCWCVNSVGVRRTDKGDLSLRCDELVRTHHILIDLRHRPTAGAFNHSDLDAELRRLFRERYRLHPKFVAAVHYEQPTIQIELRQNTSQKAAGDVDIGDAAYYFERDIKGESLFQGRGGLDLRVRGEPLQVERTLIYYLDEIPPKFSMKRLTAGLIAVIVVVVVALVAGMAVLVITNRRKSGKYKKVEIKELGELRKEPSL
- assayName: flow cytometry, HCC38 cells
- Description: Tumor cells expressing Trop-2 were prepared into a cell suspension (0.5-1×10⁶ cells/mL) using the FACS buffer (Miltenyi Biotec, 130-091-221), and the cell suspension was added to a 96-well V-bottom plate at 100 μL/well. After centrifugation and removal of the supernatant, the test antibodies diluted with the FACS buffer to different concentrations (0.006 nM-100 nM) were each added at 50 μL/well. The mixture was incubated in the dark in a 4° C. refrigerator for 1 h. […]
Would you mind telling me the reported pEC50 of each entry?
Answers are plain numbers, as −log10 of the molar value.

Some solved cases for reference:
binder	measurementType	resultValue
hz-Ab2-1.3 (antibody, human IgG1, kappa, V domains shown, Humanized antibody) VH: QVQLQESGPGLVKPSETLSLTCTVSGFSLTYYGIDWIRQPPGKGLEWIGVIWGSGNTKYNSALKSRVTISKDNSKSQFSLKLSSVTAADTAVYYCARFYEGFAYWGQGTLVTVSS VL: DIQMTQSPSSLSASVGDRVTITCKASQDINSYLSWFQQKPGKAPKTLIYRANRLVEGVPSRFSGSGSGQDYTLTISSLQPEDFATYYCLQYDEFPLTFGQGTKVEIKR	pEC50	9.19
hz-Ab21-1.2 (antibody, human IgG1, kappa, V domains shown, Humanized antibody) VH: EVQLVESGGGLVKPGGSLRLSCAASGFTLRNYGVHWVRQAPGKGLEWVGVIWSSGTTDYNAAFISRFTISKDNSKNTLYLQMNSLKTEDTAVYYCTRDGDYDYYTMDYWGQGTLVTVSS VL: EIVLTQSPATLSLSPGERATLSCRASKSVSTSAYSYIHWYQQKPGQAPRLLIYLTSNLESGIPARFSGSGSGTDFTLTISSLEPEDFAVYYCQHSRELPYTFGQGTKVEIKR	pEC50	9.18

Form field: reported pEC50 of ch-Ab21 (antibody, human IgG1, kappa, V domains shown, Mouse VH/VL on human IgG1 and human kappa constant regions; also called chimeric antibody of Ab21) VH: EVQLKQSGPGLVQPSQSLSITCTVSGFSLRNYGVHWVRQSPGKGLEWLGVIWSSGTTDYNAAFISRLSITKDNSKSQVFFKMNSLQVDDTAIYNCARDGDYDYYTMDYWGQGTSVTVSS VL: AIVLTQSPASLAVSLGQRATISCRASKSVSTSAYSYIHWYQQKPGQPPKLLIYLTSNLESGVPARFSGSGSGTDFTLNIHPVEEEDAATYYCQHSRELPYTFGGGTKLEIKR
9.19
